// data source = patent US20080280933A1

Target: mGluR2 receptor (metabotropic glutamate receptor 2) (Homo sapiens, UniProt Q14416)
Construct: expressed in transfected cells
Sequence (Q14416 19-872, species assumed): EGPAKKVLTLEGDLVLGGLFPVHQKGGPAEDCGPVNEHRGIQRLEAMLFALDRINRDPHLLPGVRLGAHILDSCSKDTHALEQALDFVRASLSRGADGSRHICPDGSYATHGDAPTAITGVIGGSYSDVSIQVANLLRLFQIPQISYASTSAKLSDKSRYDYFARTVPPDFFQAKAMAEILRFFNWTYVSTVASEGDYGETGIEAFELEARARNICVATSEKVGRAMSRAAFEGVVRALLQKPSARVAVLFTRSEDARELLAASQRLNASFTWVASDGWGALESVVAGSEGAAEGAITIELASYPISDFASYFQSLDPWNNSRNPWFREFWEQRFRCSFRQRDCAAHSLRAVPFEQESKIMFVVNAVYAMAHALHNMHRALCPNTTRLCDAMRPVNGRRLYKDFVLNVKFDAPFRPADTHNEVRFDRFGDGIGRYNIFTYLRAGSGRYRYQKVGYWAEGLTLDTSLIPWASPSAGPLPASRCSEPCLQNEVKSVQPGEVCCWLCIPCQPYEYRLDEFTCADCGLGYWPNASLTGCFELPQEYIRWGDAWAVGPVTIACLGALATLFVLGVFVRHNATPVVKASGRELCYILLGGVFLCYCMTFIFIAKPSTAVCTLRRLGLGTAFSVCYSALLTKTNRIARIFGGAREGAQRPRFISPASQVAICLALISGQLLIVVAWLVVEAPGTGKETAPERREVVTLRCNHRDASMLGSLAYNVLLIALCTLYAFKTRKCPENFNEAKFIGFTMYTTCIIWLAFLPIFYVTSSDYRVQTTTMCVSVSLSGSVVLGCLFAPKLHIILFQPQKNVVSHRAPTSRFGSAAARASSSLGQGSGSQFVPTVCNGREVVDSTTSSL
Assay: mGluR2 Potentiator Screen, FLIPR, EC10-EC20 glutamate challenge
Assay type: cell-based
Details: read-out: EC50
In plain terms, low EC50, meaning strictly below 2000 nM, gives label 1, and everything else gives label 0.

Below, 3 molecules whose answers are already recorded.
Cn1c(CN2CCC(c3ccccc3O[C@H]3CCOC3)CC2)nc2ccccc21
label 0
COc1ccccc1C1(OC)CCN(Cc2nc3ccccc3n2C)CC1C (stereo not drawn)
label 0
CCC(C)CN1CC2(CCN(Cc3nc4ccccc4n3C)CC2)c2cc(C)cc(C)c21 (stereo not drawn)
label 0

A record lists CCOCCOc1ccccc1C1CCN(Cc2nc3ccccc3n2C)CC1 . Is its EC50 below 2000 nM?
label 1

What would you report for CCOc1ccc(Cl)cc1C1CCN(Cc2nc3ccccc3n2CCOC)CC1 ?
label 1

What would you report for Cn1c(CN2CCC(c3ccccc3F)CC2)nc2ccc(Br)cc21 ?
label 1

What would you report for COc1cc(C(F)(F)F)ccc1C1CCN(Cc2nc3cccc(F)c3n2C)CC1 ?
label 1

What would you report for Cn1c(CN2CCC(c3ccc(C(F)(F)F)cc3)C(F)C2)nc2ccccc21 (stereo not drawn) ?
label 1

What would you report for Cc1noc(C)c1C(=O)N1CC2(CCN(Cc3nc4ccccc4n3C)CC2)c2ccccc21 ?
label 0

What would you report for CCCN(CC1CC1)C(=O)c1cccc(C2CCN(Cc3nc4ccccc4n3C)CC2)c1 ?
label 0

---

Target: mGluR2 receptor (metabotropic glutamate receptor 2) (Homo sapiens)
Construct: expressed in transfected cells
Assay: mGluR2 Potentiator Screen, FLIPR, EC10-EC20 glutamate challenge
Type: cell-based
Settings: read-out: EC50
MEASUREMENT_TYPE: pEC50
Friendly reminder that pEC50 comes from taking -log10 of the concentration in mol/L.

COCn1c(CN2CCC(c3ccccc3F)CC2)nc2ccccc21
5.34

I'd like to know its pEC50. The compound in question is COc1ccccc1C1(OC)CCN(Cc2nc3c(Br)cccc3n2C)CC1C (stereo not shown)
5.32

What would you report for Cn1c(CN2CCC(c3ccc(F)cc3)CC2)nc2cc(F)c(F)cc21 ?
6.32

---

Molecular target: mGluR2 receptor (metabotropic glutamate receptor 2) (Homo sapiens, UniProt Q14416)
Construct: expressed in transfected cells
Experiment: mGluR2 Potentiator Screen, FLIPR, EC10-EC20 glutamate challenge
Format: cell-based
Details: read-out: EC50
pEC50: −log10 of the molar value.
This listing pairs compounds with measured pEC50.

Example entries begin here.
Cc1ccc2c(c1)C1(CCN(Cc3nc4ccccc4n3C)CC1)CN2 [compound 143]
< 5.06
COc1ccccc1C1(OC)CCN(Cc2nc3ccccc3n2CF)CC1C (stereo not drawn) [compound 334]
< 5.15

// next item, pEC50 requested
I'd like to know its pEC50. The compound in question is CC(Oc1ccccc1C1CCN(Cc2nc3ccccc3n2C)CC1)c1ccccc1 (stereo not drawn) [compound 103]
< 5.25

---

Target: mGluR2 receptor (metabotropic glutamate receptor 2) (Homo sapiens)
Construct: expressed in transfected cells
Assay: mGluR2 Potentiator Screen, FLIPR, EC10-EC20 glutamate challenge
Format: cell-based
Details: read-out: EC50
MEASUREMENT_TYPE: EC50 (nM)
All answers are understood in nM, so give the number only.

Example entries begin here.
CC[C@H](C)COc1ccccc1C1CCN(Cc2nc3ccccc3n2C)CC1
1610
C[C@@H]1CN(Cc2nc3ccccc3n2C)CC[C@@H]1c1ccccc1F (relative stereo)
124

I'd like to know its EC50. The compound in question is Cn1c(CN2CCC(c3ccccc3F)CC2)nc2cc(-c3ccccc3)ccc21
176

What would you report for COCCn1c(CN2CCC(c3cc(C(F)(F)F)ccc3OC)CC2)nc2ccccc21 ?
984

What would you report for Cn1c(CN2CCC(c3cc(F)cc4c3OCCC4)CC2)nc2ccccc21 ?
5340

What would you report for CN(C)CCCOc1ccccc1C1CCN(Cc2nc3ccccc3n2C)CC1 ?
4190

What would you report for C[C@@H]1CN(Cc2nc3ccccc3n2C)CC[C@@H]1c1ccc(F)c(F)c1 (single isomer, unassigned) [Entry 473] ?
1030

What would you report for COCCn1c(CN2CCC(c3ccccc3F)CC2)nc2ccccc21 ?
251

What would you report for COC(=O)CCCC(=O)N1CC2(CCN(Cc3nc4ccccc4n3C)CC2)c2cc(C)ccc21 ?
1850

What would you report for Cn1c(CN2CCC3(CC2)CN(C(=O)C2CC2)c2ccccc23)nc2ccccc21 ?
4010

What would you report for COc1ccccc1[C@H]1CCN(Cc2nc3ccccc3n2C)C[C@H]1C (relative stereo) ?
323

---

Target: mGluR2 receptor (metabotropic glutamate receptor 2) (Homo sapiens, UniProt Q14416)
Construct: expressed in transfected cells
Test: mGluR2 Potentiator Screen, FLIPR, EC10-EC20 glutamate challenge
Type: cell-based
Details: read-out: EC50
MEASUREMENT_TYPE: pEC50
Friendly reminder that pEC50 comes from taking -log10 of the concentration in mol/L.

C[C@@H]1CN(Cc2nc3ccccc3n2C)CC[C@@H]1c1ccc(F)cc1F (relative stereo) [compound 463]
7.39
Cn1c(CN2CCC(c3cc(F)cc(F)c3)CC2)nc2c(F)cccc21 [compound 395]
6.48
COCn1c(CN2CCC(c3ccc(F)cc3)CC2)nc2ccccc21 [compound 365]
5.78

Form field - read-out: pEC50; system: mGluR2 receptor (metabotropic glutamate receptor 2) (Homo sapiens, UniProt Q14416); submitted item: CCN1CC2(CCN(Cc3nc4ccccc4n3C)CC2)c2cc(Cl)ccc21 [compound 105]
5.47

What would you report for COc1ccc(-c2ccc3nc(CN4CCC(c5ccccc5F)CC4)n(C)c3c2)cn1 [compound 277] ?
7.35

What would you report for CCOCCCOc1ccccc1C1CCN(Cc2nc3ccccc3n2C)CC1 [compound 91] ?
5.85

---

Target: mGluR2 receptor (metabotropic glutamate receptor 2) (Homo sapiens)
Construct: expressed in transfected cells
Assay: mGluR2 Potentiator Screen, FLIPR, EC10-EC20 glutamate challenge
Format: cell-based
Settings: read-out: EC50
pEC50: −log10 of the molar value.
This listing pairs molecules with measured pEC50.

Example entries begin here.
COCC(=O)N1CC2(CCN(Cc3nc4ccccc4n3C)CC2)c2cc(Cl)ccc21 [compound 44]
< 5.29
Cn1c(CN2CCC3(CC2)CN(C(=O)c2ccc4nccnc4c2)c2ccccc23)nc2ccccc21 [compound 48]
< 5.18

// next item, pEC50 requested
Form field - read-out: pEC50; system: mGluR2 receptor (metabotropic glutamate receptor 2) (Homo sapiens); submitted item: C[C@@H]1CN(Cc2nc3ccccc3n2C)CC[C@]1(C)c1cccc(NS(C)(=O)=O)c1 [compound 80]
< 5.90
